This collection of values is drawn from paper PMC10796410.

# TEST_NAME: Plasma pharmacokinetics of olaparib in rats after a single oral dose, alone or with metformin (UPLC-MS/MS, non-compartmental)
# Assay type: in vivo, Wistar rats
# EXPERIMENTAL_SETUP: male, Wistar, rat, plasma, oral, 100 mg/kg, t 0.083 h; IIIOLA (olaparib alone); group mean; read-out: Cave_ola
RESULT_TYPE: concentration at 0.083 h

Reported concentration at 0.083 h for O=C(c1cc(Cc2n[nH]c(=O)c3ccccc23)ccc1F)N1CCN(C(=O)C2CC2)CC1 [olaparib, Olaparib] was 1080 ng/mL

----------
# TEST_NAME: Plasma pharmacokinetics of olaparib in rats after a single oral dose, alone or with metformin (UPLC-MS/MS, non-compartmental)
# Assay type: in vivo, Wistar rats
# EXPERIMENTAL_SETUP: male, Wistar, rat, plasma, po, 100 mg/kg, rat plasma; IMET+OLA: metformin 100 mg/kg b.w. + olaparib 100 mg/kg b.w. oral single dose; n = 8; mean ± SD
RESULT_TYPE: k el (s⁻¹)
One number for each entry, in s⁻¹.

Reported k el for O=C(c1cc(Cc2n[nH]c(=O)c3ccccc23)ccc1F)N1CCN(C(=O)C2CC2)CC1 [olaparib, Olaparib] was 9.44e-05

----------
# TEST_NAME: Plasma pharmacokinetics of olaparib in rats after a single oral dose, alone or with metformin (UPLC-MS/MS, non-compartmental)
# Format: in vivo, Wistar rats
# EXPERIMENTAL_SETUP: male, Wistar, rat, plasma, oral, t 6 h; IMET+OLA (metformin and olaparib); group mean; read-out: Cave_ola
RESULT_TYPE: concentration at 6 h

Reported concentration at 6 h for `O=C(c1cc(Cc2n[nH]c(=O)c3ccccc23)ccc1F)N1CCN(C(=O)C2CC2)CC1` was 1190 ng/mL

----------
# TEST_NAME: Plasma pharmacokinetics of metformin in rats after a single oral dose, alone or with olaparib (HPLC-UV, non-compartmental)
# Type: in vivo, Wistar rats
# EXPERIMENTAL_SETUP: male, Wistar, rat, plasma, oral, 100 mg/kg, t 2 h; IIMET (metformin alone); group mean; read-out: Cmet, S (group mean)
RESULT_TYPE: concentration at 2 h (ng/mL)
Give bare numbers, in ng/mL.

Reported concentration at 2 h for `CN(C)C(=N)N=C(N)N` was 285

----------
# TEST_NAME: Plasma pharmacokinetics of olaparib in rats after a single oral dose, alone or with metformin (UPLC-MS/MS, non-compartmental)
# Assay type: in vivo, Wistar rats
# EXPERIMENTAL_SETUP: male, Wistar, rat, plasma, oral, t 0.333 h; IMET+OLA (metformin and olaparib); group mean; read-out: Cave_ola
RESULT_TYPE: concentration at 0.333 h (ng/mL)
Numbers only, in ng/mL.

Reported concentration at 0.333 h for `O=C(c1cc(Cc2n[nH]c(=O)c3ccccc23)ccc1F)N1CCN(C(=O)C2CC2)CC1` was 7190

----------
# TEST_NAME: Plasma pharmacokinetics of olaparib in rats after a single oral dose, alone or with metformin (UPLC-MS/MS, non-compartmental)
# Type: in vivo, Wistar rats
# EXPERIMENTAL_SETUP: male, Wistar, rat, plasma, oral, t 10 h; IMET+OLA (metformin and olaparib); group mean; read-out: Cave_ola
RESULT_TYPE: concentration at 10 h (ng/mL)
Give bare numbers, in ng/mL.

Reported concentration at 10 h for `O=C(c1cc(Cc2n[nH]c(=O)c3ccccc23)ccc1F)N1CCN(C(=O)C2CC2)CC1` was 155
